- Target: T1, human CD24 (human, UniProt P25063 27-59, heavily glycosylated, GPI-anchored (as described in the background))
- T1 construct: whole, on cells; Target of all cell-based FACS assays; also called hCD24; Cluster of differentiation 24
- T1 chain (looked up): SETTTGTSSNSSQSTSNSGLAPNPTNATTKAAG
- Test: FACS, MCF7 cells
Catalogue of FACS MFI readings, one per entry.

Worked examples, 2 binders total:
110D4G4 (antibody, V domains shown, mouse monoclonal antibody; also called mAb-110D4G4) VH: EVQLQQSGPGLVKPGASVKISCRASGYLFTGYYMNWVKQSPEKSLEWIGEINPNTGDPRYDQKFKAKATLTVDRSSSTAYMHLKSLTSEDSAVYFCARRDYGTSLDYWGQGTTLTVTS VL: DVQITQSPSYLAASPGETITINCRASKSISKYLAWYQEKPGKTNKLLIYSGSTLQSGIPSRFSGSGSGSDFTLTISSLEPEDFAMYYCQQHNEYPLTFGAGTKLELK : 21200
56A7E3 (antibody, V domains shown, mouse monoclonal antibody) VH: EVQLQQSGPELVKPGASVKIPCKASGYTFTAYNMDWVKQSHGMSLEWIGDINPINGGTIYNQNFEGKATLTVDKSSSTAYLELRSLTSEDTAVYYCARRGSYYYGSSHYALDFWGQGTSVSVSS VL: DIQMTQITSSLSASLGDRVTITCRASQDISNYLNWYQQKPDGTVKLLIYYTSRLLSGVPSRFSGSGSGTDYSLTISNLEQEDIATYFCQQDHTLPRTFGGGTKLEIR : 9190

// moving on: another record for FACS MFI
Prompt line: Give the measured FACS MFI of 71A4F12 (antibody, V domains shown, mouse monoclonal antibody) VH: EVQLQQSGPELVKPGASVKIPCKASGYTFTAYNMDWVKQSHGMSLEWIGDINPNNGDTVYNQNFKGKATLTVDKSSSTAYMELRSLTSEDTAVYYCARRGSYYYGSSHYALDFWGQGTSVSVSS VL: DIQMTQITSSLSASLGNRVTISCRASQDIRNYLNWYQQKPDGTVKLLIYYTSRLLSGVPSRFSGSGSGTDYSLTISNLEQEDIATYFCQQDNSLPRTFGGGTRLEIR .
Response line: 2420

Data credit: patent US20240052052A1
